pIC50 values by entry
biological target: Endothelin-1 receptor (Rattus norvegicus); experiment: Inhibitory activity against the Endothelin A receptor of rat MMQ cells
pIC50: −log10 of the molar value.
EXPERIMENTAL_READOUT: pIC50

>>> experimental_result("C=CCNC(=O)CN1C[C@@H](c2ccc3c(c2)OCO3)[C@H](C(=O)O)[C@H]1c1ccc(OC)cc1")
7.47
>>> experimental_result("COCCOCCN1C[C@@H](c2ccc3c(c2)OCO3)[C@H](C(=O)O)[C@H]1c1ccc(OC)cc1")
6.17
>>> experimental_result("COc1ccc([C@@H]2[C@@H](C(=O)O)[C@H](c3ccc4c(c3)OCO4)CN2CCOc2ccccc2)cc1")
6.05
>>> experimental_result("CCCN(C)C(=O)CN1C[C@@H](c2ccc3c(c2)OCO3)[C@H](C(=O)O)[C@H]1c1ccc(OC)cc1")
8.18

###

pIC50 values by entry
Molecular target: UniProt:P26684
Sequence (P26684 whole entry): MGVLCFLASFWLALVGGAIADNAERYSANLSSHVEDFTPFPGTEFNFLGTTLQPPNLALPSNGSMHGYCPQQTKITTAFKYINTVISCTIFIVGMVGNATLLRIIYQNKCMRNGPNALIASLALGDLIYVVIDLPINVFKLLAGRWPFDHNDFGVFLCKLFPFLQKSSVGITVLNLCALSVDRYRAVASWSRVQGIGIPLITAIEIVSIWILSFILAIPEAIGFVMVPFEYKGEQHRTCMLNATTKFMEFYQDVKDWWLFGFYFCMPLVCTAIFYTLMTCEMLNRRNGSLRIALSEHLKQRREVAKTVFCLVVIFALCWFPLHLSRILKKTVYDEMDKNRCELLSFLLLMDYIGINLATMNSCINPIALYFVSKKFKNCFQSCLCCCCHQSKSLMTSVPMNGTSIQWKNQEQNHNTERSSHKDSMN
Assay: Inhibitory activity against the Endothelin A receptor of rat MMQ cells
pIC50: −log10 of the molar value.
EXPERIMENTAL_READOUT: pIC50

>>> experimental_result("COc1ccc([C@@H]2[C@@H](C(=O)O)[C@H](c3ccc4c(c3)OCO4)CN2C(=O)N2CCOCC2)cc1")
5.97
>>> experimental_result("COc1ccc([C@@H]2[C@@H](C(=O)O)[C@H](c3ccc4c(c3)OCO4)CN2CCc2ccccn2)cc1")
6.05
>>> experimental_result("CCCOCCN1C[C@@H](c2ccc3c(c2)OCO3)[C@H](C(=O)O)[C@H]1c1ccc(OC)cc1")
6.97
>>> experimental_result("CCCCN(CC)C(=O)CN1C[C@@H](c2ccc3c(c2)OCO3)[C@H](C(=O)O)[C@H]1c1ccc(OC)cc1")
9.07
>>> experimental_result("CCCCN(CCCC)CCN1C[C@@H](c2ccc3c(c2)OCO3)[C@H](C(=O)O)[C@H]1c1ccc(OC)cc1")
6.10
>>> experimental_result("COc1ccc([C@@H]2[C@@H](C(=O)O)[C@H](c3ccc4c(c3)OCO4)CN2CC(=O)NC2CCCC2)cc1")
7.79
>>> experimental_result("CCCC#CCN1C[C@@H](c2ccc3c(c2)OCO3)[C@H](C(=O)O)[C@H]1c1ccc(OC)cc1")
6.12
>>> experimental_result("CC[S+]([O-])CCN1C[C@@H](c2ccc3c(c2)OCO3)[C@H](C(=O)O)[C@H]1c1ccc(OC)cc1 (stereo partly specified)")
7.36
>>> experimental_result("CCOCCN1C[C@@H](c2ccc3c(c2)OCO3)[C@H](C(=O)O)[C@H]1c1ccc(OC)cc1")
6.28
>>> experimental_result("COCCN(CCOC)C(=O)CN1C[C@@H](c2ccc3c(c2)OCO3)[C@H](C(=O)O)[C@H]1c1ccc(OC)cc1")
8.35
>>> experimental_result("COc1ccc([C@@H]2[C@@H](C(=O)O)[C@H](c3ccc4c(c3)OCO4)CN2C(=O)c2ccco2)cc1")
5.28
>>> experimental_result("CCCCN(CCCC)C(=O)CN1CC(c2ccc3c(c2)OCO3)C(C(N)=O)C1c1ccc(OC)cc1 (stereo unspecified)")
7.24
>>> experimental_result("COc1ccc([C@@H]2[C@@H](C(=O)O)[C@H](c3ccc4c(c3)OCO4)CN2Cc2ccc(F)cc2)cc1")
5.36
>>> experimental_result("COCCNC(=O)CN1C[C@@H](c2ccc3c(c2)OCO3)[C@H](C(=O)O)[C@H]1c1ccc(OC)cc1")
6.75
>>> experimental_result("COc1ccc([C@@H]2[C@@H](C(=O)O)[C@H](c3ccc4c(c3)OCO4)CN2CC(=O)N2CCCCC2)cc1")
6.46
>>> experimental_result("COc1ccc([C@@H]2[C@@H](C(=O)O)[C@H](c3ccc4c(c3)OCO4)CN2CC(=O)N(CC(C)C)CC(C)C)cc1")
7.79
